- Test system: SIK2;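 also: KINOMEscan kinase panel screen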
- MEASUREMENT_CONTEXT: concentration: 1 μM, replicates: in singlicate; n = 1
%Inh by entry:
PROPERTY: %Inh (%)

[[record]]
compound = "Cl.Cl.Cl.N#Cc1ccc(CCNc2nccc(-c3cccc(CN4CCNCC4)c3)n2)cc1"
property = "%Inh"
data_value = 2

[[record]]
compound = "Cc1ccc(NC(=O)Nc2ccccc2)cc1-c1ccc(C(=O)Nc2ccncc2)cc1"
property = "%Inh"
data_value = 0

[[record]]
compound = "CSc1ccc(-c2nc3n(c2-c2ccncc2)CCC3)cc1"
property = "%Inh"
data_value = 0

[[record]]
compound = "Cc1c(Cn2c(C)c(C)n3c(=O)cc(N4CCOCC4)nc23)cccc1C(F)(F)F"
property = "%Inh"
data_value = 0

[[record]]
compound = "COC(=O)c1cccc(NC(=O)NC2CCN(c3ccnc(Nc4ccc(F)cc4)n3)C2)c1 (stereo not shown)"
property = "%Inh"
data_value = 0

[[record]]
compound = "CNc1nc(-c2ccc3c(N)n[nH]c3c2)cc(N2C[C@@H](C(=O)NC3CCCCC3)OC[C@H]2C)n1"
property = "%Inh"
data_value = 0

[[record]]
compound = "Fc1ccc(-c2nn3cccc(F)c3c2-c2ccncc2)cc1"
property = "%Inh"
data_value = 12

[[record]]
compound = "FC(F)(F)c1ccccc1-c1cc(-c2c[nH]nc2-c2ccccn2)ccn1"
property = "%Inh"
data_value = 0

[[record]]
compound = "COc1ccc(CSc2nnc(-c3ccc4c(c3)CCO4)o2)cc1"
property = "%Inh"
data_value = 0

[[record]]
compound = "CCc1ccc(-c2ccc3c(c2)-c2n[nH]cc2S(=O)(=O)N3C)cc1"
property = "%Inh"
data_value = 13

[[record]]
compound = "COc1ccc(CSc2nnc(-c3ccc4ncsc4c3)o2)cc1C(F)(F)F"
property = "%Inh"
data_value = 0

[[record]]
compound = "CCn1c(-c2c(N)noc2C)nc2cnccc21"
property = "%Inh"
data_value = 0

[[record]]
compound = "CC[C@@H]1CO[C@H](C(=O)Nc2ccccc2)CN1c1cc(-c2ccc3c(N)n[nH]c3c2)nc(NC)n1"
property = "%Inh"
data_value = 0

[[record]]
compound = "CC(C)c1ccc(O)cc1Nc1ccnc2ccc(C(F)(F)F)cc12"
property = "%Inh"
data_value = 0

[[record]]
compound = "c1ccc(-c2ccnc3[nH]ccc23)cc1"
property = "%Inh"
data_value = 25

[[record]]
compound = "Cc1ccccc1-c1cc(-c2c[nH]nc2-c2ccccn2)ccn1"
property = "%Inh"
data_value = 0

[[record]]
compound = "NS(=O)(=O)c1cccc(N/C=C2\\C(=O)Nc3ccc(S(=O)(=O)Cc4c(Cl)cccc4Cl)cc32)c1"
property = "%Inh"
data_value = 0

[[record]]
compound = "COc1ccc(-c2coc3ccc(-c4nnc(C)o4)cc23)cc1"
property = "%Inh"
data_value = 3

[[record]]
compound = "CNc1nc(-c2ccc3c(N)n[nH]c3c2)cc(N2C[C@@H](C(=O)Nc3ccccc3)CC[C@H]2C)n1"
property = "%Inh"
data_value = 0

[[record]]
compound = "COC(=O)C(Cc1ccccc1)NC(=O)NC1CCN(c2ccnc(Nc3ccc(F)cc3)n2)C1 (stereo not shown)"
property = "%Inh"
data_value = 0

[[record]]
compound = "Cc1c(Cn2c3ccccc3n3c(=O)cc(N4CCOCC4)nc23)cccc1C(F)(F)F"
property = "%Inh"
data_value = 0

[[record]]
compound = "CCn1c(-c2ccccc2)nc2cnccc21"
property = "%Inh"
data_value = 5

[[record]]
compound = "O=C(Nc1n[nH]c2cc(-c3ccsc3)ccc12)C1CC1"
property = "%Inh"
data_value = 0

[[record]]
compound = "COc1ccc(Nc2nccc(NCCNC(=O)Nc3cc(C)ccc3C)n2)cc1"
property = "%Inh"
data_value = 0

[[record]]
compound = "COc1ccc(Nc2nccc(-c3ccc(NC(=O)c4cc5cc(F)ccc5[nH]4)cc3)n2)cc1"
property = "%Inh"
data_value = 0

[[record]]
compound = "Cc1ccc(NC(=O)Nc2ccc(Cl)cc2)cc1-c1ccc(C(=O)Nc2ccncc2)cc1"
property = "%Inh"
data_value = 11

[[record]]
compound = "Nc1ncnc2occ(-c3ccc4c(c3)CCN4C(=O)Cc3cc(F)ccc3F)c12"
property = "%Inh"
data_value = 0

[[record]]
compound = "Cc1ccc(NC(=O)c2ccc(Cl)cc2)cc1-c1ccc(C(=O)Nc2ccncc2)cc1"
property = "%Inh"
data_value = 0

[[record]]
compound = "CCCCc1nn2ncccc2c1-c1ccnc(NC2CC2)n1"
property = "%Inh"
data_value = 0

[[record]]
compound = "CC(=O)c1c(C)c2cnc(Nc3ccn(C)n3)nc2n(C2CCCC2)c1=O"
property = "%Inh"
data_value = 0

[[record]]
compound = "O=C(Nc1n[nH]c2nc(-c3cccs3)c(Br)cc12)C1CCCC1"
property = "%Inh"
data_value = 0

[[record]]
compound = "COc1ccc(CSc2nnc(-c3ccc4nccn4c3)o2)cc1C(F)(F)F"
property = "%Inh"
data_value = 29

[[record]]
compound = "Fc1ccc(-c2nc[nH]c2-c2ccncc2)cc1"
property = "%Inh"
data_value = 0

[[record]]
compound = "COc1cccc(CNC(=O)NC2CCN(c3ccnc(Nc4ccc(F)cc4)n3)C2)c1 (stereo not shown)"
property = "%Inh"
data_value = 14

[[record]]
compound = "Cc1nccc(-c2c(-c3ccc(F)cc3)ncn2CCCN2CCOCC2)n1.Cl"
property = "%Inh"
data_value = 0

[[record]]
compound = "Nc1nccc(-c2c(-c3ccc(F)cc3)ncn2C2CCN(Cc3ccccc3)CC2)n1"
property = "%Inh"
data_value = 24

[[record]]
compound = "Fc1ccc(-c2nc3n(c2-c2ccncc2)CCS3)cc1"
property = "%Inh"
data_value = 0

